These data points were gathered from paper PMC8757610.

TEST_SUMMARY: Single-dose pharmacokinetics study
Assay type: in vivo
SETTINGS: both sexes, dog, plasma, po; beagle dogs, p.o. 1.25 mg/kg, mean ± SD, n = 6
METRIC_NAME: AUC(0-t) (ng·h/mL)
# number only, unit ng·h/mL dropped from output

Entry COc1ccc(CNC2CCN(Cc3nc4ccccc4o3)CC2)cc1.Cl.Cl [DDO-02005] has what AUC(0-t)?
4.41

###

TEST_SUMMARY: Single-dose pharmacokinetics study
Assay type: in vivo
SETTINGS: both sexes, beagle, dog, plasma, po, 1.25 mg/kg, beagle dogs, p.o. 1.25 mg/kg, mean ± SD, n = 6; read-out: Cmax
METRIC_NAME: Cmax (ng/mL)
# number only, unit ng/mL dropped from output

Entry COc1ccc(CNC2CCN(Cc3nc4ccccc4o3)CC2)cc1.Cl.Cl has what Cmax?
1.27

###

TEST_SUMMARY: Single-dose pharmacokinetics study
Assay type: in vivo
SETTINGS: both sexes, dog, plasma, iv; beagle dogs, i.v. 1.00 mg/kg, mean ± SD, n = 6
METRIC_NAME: AUC(0-t) (ng·h/mL)
# number only, unit ng·h/mL dropped from output

Entry COc1ccc(CNC2CCN(Cc3nc4ccccc4o3)CC2)cc1.Cl.Cl [DDO-02005] has what AUC(0-t)?
178

###

Kindly state pIC50 for each of the entries shown.
SUBJECT_OF_TEST: UniProt:P22460
TEST_SUMMARY: Whole-cell patch clamp assay on HEK 293 cells stably expressing hKv1.5
SETTINGS: hKv1.5 IC50, whole-cell patch clamp, HEK 293 cells expressing hKv1.5, 25 °C, mean ± SD
Just the number, please; pIC50 means minus log10 of the concentration in mol/L.

State its pIC50 on UniProt:P22460: COc1ccc(NC(=O)C2CCN(Cc3nc4ccccc4o3)CC2)cc1
5.05

// next record COc1ccc(CNC2CCN(Cc3nc4ccccc4o3)CC2)cc1.Cl.Cl
6.14

// next record COc1ccc(NC(=O)C2CCN(Cc3ccccc3)CC2)cc1
4.75

###

SUBJECT_OF_TEST: hKv1.5 potassium channel (Homo sapiens)
Sequence (P22460 whole entry): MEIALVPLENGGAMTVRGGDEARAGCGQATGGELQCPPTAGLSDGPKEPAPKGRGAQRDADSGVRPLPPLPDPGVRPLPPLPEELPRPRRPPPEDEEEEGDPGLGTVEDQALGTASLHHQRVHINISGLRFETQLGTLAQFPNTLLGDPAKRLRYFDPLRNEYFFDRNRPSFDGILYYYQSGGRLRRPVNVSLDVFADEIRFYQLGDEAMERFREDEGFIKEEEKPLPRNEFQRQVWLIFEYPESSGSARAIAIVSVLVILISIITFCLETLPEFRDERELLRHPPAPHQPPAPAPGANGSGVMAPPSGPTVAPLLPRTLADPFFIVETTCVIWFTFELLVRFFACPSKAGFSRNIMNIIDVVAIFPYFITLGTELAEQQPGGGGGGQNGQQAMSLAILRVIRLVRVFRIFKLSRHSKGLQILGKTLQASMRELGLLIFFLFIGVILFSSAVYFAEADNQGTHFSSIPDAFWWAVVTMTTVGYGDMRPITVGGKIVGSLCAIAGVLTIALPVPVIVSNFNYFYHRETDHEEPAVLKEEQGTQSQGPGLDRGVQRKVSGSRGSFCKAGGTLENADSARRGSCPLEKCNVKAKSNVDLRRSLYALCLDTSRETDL
TEST_SUMMARY: Whole-cell patch clamp assay on HEK 293 cells stably expressing hKv1.5
SETTINGS: hKv1.5 IC50, whole-cell patch clamp, HEK 293 cells expressing hKv1.5, 25 °C, mean ± SD
pIC50: −log10 of the molar value.
Kindly state pIC50 for each of the entries shown.

Entry Cc1ccc(CNC2CCN(Cc3nc4ccccc4o3)CC2)cc1 [DDO-02008] has what pIC50?
< 4.70

// next record COc1ccccc1CNC1CCN(Cc2nc3ccccc3o2)CC1 [DDO-02007]
< 4.70

// next record c1ccc(CCNC2CCN(Cc3nc4ccccc4o3)CC2)cc1 [DDO-02009]
< 4.70
